# protocol: probe aNog binding to arrayed compounds – biochemical, biotinylated probe, 635/667 nm fluorescence, primary screen (AID 1115);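 also: probe is biotinylated aNog protein used at 0.15 µg/mL for 1 h at 4 C; z-score combines 667 nm fluorescence of each spot with its signal to noise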
# measurement_context: small-molecule microarray, higher = more signal
property_name: composite z-score
Enter the number alone.

Cc1c(NC(=O)/C(C#N)=C/C=C/c2ccccc2)c(=O)n(-c2ccccc2)n1C : -0.49
COc1ccc(C(O)C2C=CC3C(=O)N(c4ccccc4)C(=O)C3N2Nc2ccccc2)c2ccccc12 (centres undefined) : 0.941
O=C1O[C@@H](c2ccccc2)[C@@H](c2ccccc2)N2[C@@H](c3ccc(O)cc3)[C@]3(C(=O)Nc4ccc(C#CCCO)cc43)[C@@H](C(=O)O)[C@H]12 : 2.63

We now examine a further compound.
*Q* // query composite z-score value for entry CO[C@H]1O[C@H](CO)[C@@H](OC(=O)Nc2ccccc2-c2ccccc2)[C@H](OC(=O)Nc2ccccc2-c2ccccc2)[C@H]1OC(=O)Nc1ccccc1-c1ccccc1
*A* 0.225
